Every entry's value here was drawn from PubChem BioAssay (NCI).

# Test system: MDA-MB-231 breast
# method: NCI-60 one-dose screen, 48 h (100 = growth as untreated, 0 = no growth, -100 = all killed)
# measurementConditions: 10 µM unless noted
This is part of a sample that, as a whole, favours compounds with a hit. Of some 83,000 tested, about 20% had one in any assay.
quantityMeasured: growth (%)

>>> experimentalvalue("COC(=O)[C@]12CC[C@@H](C)[C@H](C)[C@@H]1C1=CC[C@@H]3[C@@]4(C)C(C=O)=C[C@@](C)(COC(=O)c5ccco5)[C@@H]4C(=O)C[C@@]3(C)[C@]1(C)CC2")
39.4
>>> experimentalvalue("COc1cccc(-c2nn(-c3ccccc3)cc2-c2ccnc(NCCNC(=O)c3ccccc3)c2)c1")
55.3
>>> experimentalvalue("O=C(N=c1oc2ccccc2cc1-c1cc2ccccc2[nH]1)c1ccc(Cl)cc1")
51.2
>>> experimentalvalue("CCN(CC)CCN1CC(O)=C(c2nc(-c3ccc(Cl)cc3)cs2)C1=N")
12.6
>>> experimentalvalue("COc1ccc(NC(=O)CSc2nnc(-c3cc(-c4ccccc4)nc4ccccc34)n2-c2ccccc2)cc1")
89.3
>>> experimentalvalue("C=C1C(=O)O[C@H]2[C@H]1CC/C(COC(=O)C(=O)c1c[nH]c3ccc(OC)cc13)=C\\CC[C@@]1(C)O[C@@H]21")
-64.8
>>> experimentalvalue("O=C(O)c1ccc2c(c1Cl)C(=O)c1ccccc1C2=O")
112
>>> experimentalvalue("COC(=O)[C@]12CC[C@@H](C)[C@H](C)[C@@H]1C1=CC[C@@H]3[C@@]4(C)C(C=O)=C[C@@](C)(COC(=O)/C=C/c5ccccc5)[C@@H]4[C@H](O)C[C@@]3(C)[C@]1(C)CC2")
0.0701
